target: MDR1 (Homo sapiens (Human), UniProt P08183); assay: In vitro human transporter efflux, MDCKII cells expressing MDR1; assay type: in vitro ADME; conditions: MDCK-MDR1, pH 7.4, efflux ratio Papp BA/Papp AB
Sequence (P08183 whole entry): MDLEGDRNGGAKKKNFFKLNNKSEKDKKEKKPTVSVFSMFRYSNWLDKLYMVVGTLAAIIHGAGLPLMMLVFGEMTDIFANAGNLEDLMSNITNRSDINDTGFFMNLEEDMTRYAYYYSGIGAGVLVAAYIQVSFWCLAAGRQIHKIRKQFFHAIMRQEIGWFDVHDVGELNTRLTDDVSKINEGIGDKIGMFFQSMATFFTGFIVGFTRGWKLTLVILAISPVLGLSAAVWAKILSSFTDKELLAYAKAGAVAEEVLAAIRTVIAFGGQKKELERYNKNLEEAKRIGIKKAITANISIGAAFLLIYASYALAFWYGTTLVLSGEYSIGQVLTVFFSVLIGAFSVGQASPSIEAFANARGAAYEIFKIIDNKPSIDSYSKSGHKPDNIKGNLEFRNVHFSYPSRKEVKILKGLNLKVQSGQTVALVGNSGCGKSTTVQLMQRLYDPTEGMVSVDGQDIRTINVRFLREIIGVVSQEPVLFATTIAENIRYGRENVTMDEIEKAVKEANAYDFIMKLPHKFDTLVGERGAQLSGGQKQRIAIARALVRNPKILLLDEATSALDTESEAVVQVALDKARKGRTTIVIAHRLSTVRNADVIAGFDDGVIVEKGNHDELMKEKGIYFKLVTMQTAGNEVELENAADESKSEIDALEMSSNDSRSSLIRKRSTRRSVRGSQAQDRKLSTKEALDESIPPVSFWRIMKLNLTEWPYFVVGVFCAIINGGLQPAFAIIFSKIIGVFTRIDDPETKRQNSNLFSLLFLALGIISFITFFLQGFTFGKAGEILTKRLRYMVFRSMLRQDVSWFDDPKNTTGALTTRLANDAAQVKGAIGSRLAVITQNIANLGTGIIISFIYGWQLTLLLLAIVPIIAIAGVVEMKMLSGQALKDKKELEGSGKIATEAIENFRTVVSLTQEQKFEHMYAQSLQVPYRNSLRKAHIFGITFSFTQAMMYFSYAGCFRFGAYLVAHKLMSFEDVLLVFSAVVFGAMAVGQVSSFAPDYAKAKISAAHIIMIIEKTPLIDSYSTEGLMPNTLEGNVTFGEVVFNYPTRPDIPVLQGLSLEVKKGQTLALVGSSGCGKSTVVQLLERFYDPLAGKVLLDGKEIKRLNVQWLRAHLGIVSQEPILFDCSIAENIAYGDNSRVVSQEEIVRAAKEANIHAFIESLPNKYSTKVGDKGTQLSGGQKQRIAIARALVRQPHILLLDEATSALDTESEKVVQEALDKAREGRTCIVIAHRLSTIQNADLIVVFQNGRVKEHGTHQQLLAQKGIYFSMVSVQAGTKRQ
measure_name: efflux ratio at 2 h, 10 μM
API note: the answer field is a bare number with no unit suffix.

CNC(=O)c1ccc(N2CCN(Cc3ccc4c([nH]c(=O)c5ccnn54)c3F)CC2)c(F)n1 ... 1.87

Prompt: Report efflux ratio at 2 h, 10 μM for Cc1cc2c(=O)[nH]c3c(F)c(CN4CCN(c5ccc(C(=O)NC6CC6)nc5F)CC4)ccc3n2n1
Completion: 1.96

Prompt: Report efflux ratio at 2 h, 10 μM for CNC(=O)c1ccc(N2CCN(Cc3cc(F)c4c5c(c(=O)[nH]c4c3)COC5)CC2)c(F)n1 [Comp. Ex. 3, reference compound]
Completion: 5

Prompt: Report efflux ratio at 2 h, 10 μM for CNC(=O)c1ccc(N2CCN(Cc3ccc4c5c(c(=O)[nH]c4c3)CCO5)CC2)c(Cl)n1 [Comp. Ex. 2, reference compound]
Completion: 5.1

Prompt: Report efflux ratio at 2 h, 10 μM for [2H]C([2H])([2H])NC(=O)c1ccc(N2CCN(Cc3ccc4c([nH]c(=O)c5ccnn54)c3F)CC2)c(F)n1
Completion: 1.5

Prompt: Report efflux ratio at 2 h, 10 μM for CNC(=O)c1ccc(N2CCN(Cc3ccc4c([nH]c(=O)c5cc(C)nn54)c3F)CC2)c(F)n1
Completion: 2.06
